target: Avi-humanTEAD4 217-434 / Cy5 labeled humanYAP 60-100 (Homo sapiens (Human), UniProt Q15561); assay: TR-FRET YAP-TEAD4 in-vitro biochemical assay; details: 1 nM Avi-humanTEAD4 217-434, 20 nM Cy5-humanYAP 60-100, 1 h room temperature
Sequence (Q15561 217-434): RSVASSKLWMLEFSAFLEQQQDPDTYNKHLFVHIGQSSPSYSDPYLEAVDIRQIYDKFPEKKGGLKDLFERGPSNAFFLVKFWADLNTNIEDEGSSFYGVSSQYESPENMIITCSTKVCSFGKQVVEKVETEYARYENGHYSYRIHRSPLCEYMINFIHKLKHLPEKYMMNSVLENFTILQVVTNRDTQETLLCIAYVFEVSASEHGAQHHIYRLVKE
Binary call on IC50 with cut-off 7 nM: strictly below means t, and equality or higher means f.

COc1ccc(C(N)=O)c(-c2c(Cl)ccc3c2[C@H](O)[C@@](CN)(c2ccccn2)O3)c1F (atropisomer, axis not shown) ... f
CNC[C@]1(c2ccccc2)Oc2cc(F)c(Cl)c(-c3c(C(N)=O)ccc(OC)c3F)c2[C@@H]1CO (atropisomer, axis not shown) ... t
NC(=O)c1ccc(OC(F)F)c(F)c1-c1c(Cl)c(F)cc2c1C[C@@](CNC1CCC3(CCC(=O)N3)CC1)(c1ccccc1)O2 (single isomer, unassigned) [Example 59b] ... t
NC(=O)c1ccc(OC(F)F)c(F)c1-c1c(Cl)c(F)cc2c1C[C@@](CN[C@H]1CC[C@H](n3cnnn3)CC1)(c1ccccc1)O2 (atropisomer, axis not shown) ... f
NC(=O)c1ccc(OC(F)F)c(F)c1-c1c(Cl)c(F)cc2c1C[C@@](CN[C@H]1C[C@H](COC(F)F)C1)(c1ccccc1)O2 (atropisomer, axis not shown) ... f
CNC[C@@]1(c2ccccc2)Cc2c(cc(F)c(Cl)c2-c2c(C(=O)NC)cnc(OCCO)c2F)O1 (atropisomer, axis not shown) ... t
C[C@H]1c2c(ccc(Cl)c2-c2c(C(N)=O)ccc(OC(F)F)c2F)O[C@]1(CN[C@H]1CC[C@](C)(O)CC1)c1ccccc1 (relative stereo) [Example 104b] ... t
CC(=O)NC1CCC(NC[C@@]2(c3ccccc3)Cc3c(cc(F)c(Cl)c3-c3c(C(N)=O)ccc(OC(F)F)c3F)O2)CC1 (single isomer, unassigned) [Example 56a] ... t
C[C@H]1c2c(cc(F)c(Cl)c2-c2c(C(N)=O)ccc(OC(F)F)c2F)O[C@]1(CN)c1ccccc1 (atropisomer, axis not shown) ... t
NC(=O)c1ccc(OC(F)F)c(F)c1-c1c(Cl)c(F)cc2c1C[C@@](CNC1CCC(O)(CF)CC1)(c1ccccc1)O2 (single isomer, unassigned) [Example 55a] ... t

----------
target: Avi-humanTEAD4 217-434 / Cy5 labeled humanYAP 60-100 (Homo sapiens (Human)); test: TR-FRET YAP-TEAD4 in-vitro biochemical assay; format: binding; details: 1 nM Avi-humanTEAD4 217-434, 20 nM Cy5-humanYAP 60-100, 1 h room temperature
pIC50: −log10 of the molar value. Structures can show the parent of a compound that is named as a salt.
Examples of compounds with documented pIC50 follow.
attribute.measured: pIC50

NC(=O)c1ccc(OC(F)F)c(F)c1-c1c(Cl)ccc2c1[C@H](O)[C@@](CNC1CCC1)(c1ccccc1)O2 (atropisomer, axis not shown) [Example 96] ... 8.30
NCCOc1cccc(F)c1-c1c(Cl)ccc2c1C[C@@](CN)(c1ccccc1)O2 [Example 3a] ... 7.80
CNC[C@@]1(c2ccccc2)Cc2c(cc(F)c(Cl)c2-c2c(C(=O)NC)ccc(OC[C@H](C)O)c2F)O1 (atropisomer, axis not shown) [Example 52] ... 7.96
C[C@H](O)COc1ccc(C(N)=O)c(-c2c(Cl)c(F)cc3c2[C@H](C)[C@@](CN)(c2ccccc2)O3)c1F (atropisomer, axis not shown) [Example 123] ... 8.70
C[C@]1(O)CC[C@@H](NC[C@@]2(c3ccccc3)Cc3c(cc(F)c(Cl)c3-c3c(C(N)=O)ccc(OCc4ncccn4)c3F)O2)CC1 (atropisomer, axis not shown) [Example 71b] ... 9.00
NC(=O)c1ccc(OC(F)F)c(F)c1-c1c(Cl)c(F)cc2c1C[C@@](CNC1CC3(CC(O)C3)C1)(c1ccccc1)O2 (some centres unmarked) [Example 85a] ... 8.40
COC(=O)[C@H]1CC[C@@H](NC[C@@]2(c3ccccc3)Cc3c(ccc(Cl)c3-c3c(C(N)=O)ccc(F)c3F)O2)CC1 (relative stereo) [Example 137a] ... 8.30
COc1ncc(C(N)=O)c(-c2c(Cl)c(F)cc3c2C[C@@](CN[C@H]2CC[C@@](C)(O)CC2)(c2ccccc2)O3)c1F (atropisomer, axis not shown) [Example 66b] ... 8.70
NC[C@@]1(c2ccccc2)Cc2c(ccc(Cl)c2-c2c(Cl)cccc2C(N)=O)O1 (atropisomer, axis not shown) [Example 7, trifluoroacetate salt] ... 7.19
COCCNC[C@@]1(c2ccccc2)Cc2c(cc(F)c(Cl)c2-c2c(C(N)=O)ccc(OC(F)F)c2F)O1 (atropisomer, axis not shown) [Example 77] ... 7.15
COc1ccc(C(N)=O)c(-c2c(Cl)ccc3c2C[C@@](CN)(c2ccccc2)O3)c1F (single isomer, unassigned) [Example 5a] ... 8.30
COC(=O)[C@H]1CC[C@H](NC[C@@]2(c3ccccc3)Cc3c(ccc(Cl)c3-c3c(C(N)=O)ccc(F)c3F)O2)CC1 (relative stereo) [Example 137b] ... 8.22
C[C@]1(O)CC[C@H](NC[C@@]2(c3ccccc3)Cc3c(cc(F)c(Cl)c3-c3c(C(N)=O)ccc(OCc4ncccn4)c3F)O2)CC1 (atropisomer, axis not shown) [Example 71a] ... 8.70
NCCOc1cccc(F)c1-c1c(Cl)ccc2c1C[C@](CN)(c1ccccc1)O2 [Example 3b] ... 4.74
C[C@H](O)COc1ccc(C(N)=O)c(-c2c(Cl)ccc3c2C[C@@](CN)(c2ccccc2)O3)c1F (atropisomer, axis not shown) [Example 13] ... 8.22
C[C@@H]1C[C@@H](NC[C@@]2(c3ccccc3)Cc3c(cc(F)c(Cl)c3-c3c(C(N)=O)ccc(OCCO)c3F)O2)C[C@H](C)O1 (atropisomer, axis not shown) [Example 65b] ... 6.34
NC[C@@]1(c2ccccc2)Cc2c(ccc(Cl)c2-c2c(C(N)=O)ccc(OCCO)c2F)O1 (atropisomer, axis not shown) [Example 10] ... 8.52
COc1ccc(C(N)=O)c(-c2c(Cl)ccc3c2C[C@@](CN[C@H]2CC[C@H](O)CC2)(c2ccccc2)O3)c1F (relative stereo) [Example 27a] ... 9.00
NC[C@@]1(c2ccccc2)Cc2c(cc(F)c(Cl)c2-c2c(C(N)=O)ccc(OCCO)c2F)O1 (atropisomer, axis not shown) [Example 38] ... 8.70
CNC(=O)c1ccc(OC[C@H](C)O)c(F)c1-c1c(Cl)c(F)cc2c1C[C@](c1ccccc1)([C@@H]1CCCN1)O2 (atropisomer, axis not shown) [Example 154] ... 8.10
COc1ccc(C(N)=O)c(-c2c(Cl)ccc3c2C[C@@](CN[C@H]2CC[C@@H](O)CC2)(c2ccccc2)O3)c1F (relative stereo) [Example 27b] ... 9.00
COc1ccc(C(N)=O)c(-c2c(Cl)ccc3c2OC(CN)(c2ccccc2)C3)c1F (single isomer, unassigned) [Example 132] ... 5.68
CNC[C@@]1(c2ccccc2)Cc2c(cc(F)c(Cl)c2-c2c(C(N)=O)cnc(OCCO)c2F)O1 (atropisomer, axis not shown) [Example 49] ... 8.30
